tested system: T1, rHuman Erythropoietin R/Fc Chimera, CF (R&D Systems Cat#963-ER) (human, UniProt P19235 25-250)
T1 construct: Bought protein; also called EPO R; EPO R/Fc; Fc part of the bought chimera not given
T1 sequence (looked up): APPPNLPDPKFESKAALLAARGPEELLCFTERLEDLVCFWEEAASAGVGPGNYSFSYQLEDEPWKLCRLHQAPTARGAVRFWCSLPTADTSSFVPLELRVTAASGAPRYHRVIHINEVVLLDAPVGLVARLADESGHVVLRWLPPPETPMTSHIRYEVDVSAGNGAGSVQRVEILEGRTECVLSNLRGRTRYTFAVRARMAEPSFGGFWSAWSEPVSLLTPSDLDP
measurement protocol: ECL multispot (MSD) assay; antigen spotted on plate, Fab in solution;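 note: purified Fab incubated 1 hour at 20 °C in 1% BSA TBST on antigen-coated wells, detected with TAG antibody, ECL read on Sector Imager 2400, compared to each well's blank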
readout label: ECL signal (ECL signal)
Entry rule: numbers only, all in ECL signal.

So what does the record say about ECL signal for Fab VH1-46_IGHD6-6*01_IGHJ1*01 S102A/S103P/S104F (APF) & L6_IGKJ1*01 S30L (Fab, V domains shown, Tested as Fab made in E. coli; The heavy chain vector (Plasmid A) adds CH1 with His and Flag tags, the kappa vector (Plasmid C) adds CL kappa; also called APF / S30L) VH: QVQLVQSGAEVKKPGASVKVSCKASGYTFTSYYMHWVRQAPGQGLEWMGIINPSGGSTSYAQKFQGRVTMTRDTSTSTVYMELSSLRSEDTAVYYCAREEYAPFSAEYFQHWGQGTLVTVSS VL: EIVLTQSPATLSLSPGERATLSCRASQSVLSYLAWYQQKPGQAPRLLIYDASNRATGIPARFSGSGSGTDFTLTISSLEPEDFAVYYCQQRSNWPPWTFGQGTKVEIKR ?
259
